Entry source: patent US9200268B2

- target-entity: human plasma protein factor Xa (Homo sapiens (Human), UniProt P00742)
- Sequence (P00742 41-179): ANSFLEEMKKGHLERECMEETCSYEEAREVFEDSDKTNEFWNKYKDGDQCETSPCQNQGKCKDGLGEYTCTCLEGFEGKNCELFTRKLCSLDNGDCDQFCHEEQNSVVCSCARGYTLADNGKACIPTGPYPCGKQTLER
- Sequence (P00742 235-488): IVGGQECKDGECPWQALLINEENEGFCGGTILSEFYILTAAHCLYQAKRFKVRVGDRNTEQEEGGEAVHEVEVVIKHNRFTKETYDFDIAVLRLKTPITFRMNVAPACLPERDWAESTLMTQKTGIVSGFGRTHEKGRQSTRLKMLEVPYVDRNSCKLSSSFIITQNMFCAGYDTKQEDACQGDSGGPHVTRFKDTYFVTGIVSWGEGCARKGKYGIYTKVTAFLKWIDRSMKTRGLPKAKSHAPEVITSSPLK
- protocol-details: FXa inhibitory activity, IC50 determination (cleavage of paranitroanilide substrate S-2765)
- Assay type: biochemical
- conditions: factor Xa 1 nM, S2765 100 μM, Tris buffered saline pH 7.4
- Source text: This example illustrates methods for evaluating the compounds, along with results obtained for such assays. As mentioned above, the compound may be selected based on its factor Xa inhibitory activity. The in vitro factor Xa activities of the compounds can be determined by various procedures known in the art. […] The IC50 value is the concentration (in nM) of the compound required to provide 50% inhibition of factor Xa proteolytic activity. […]
Listed here: items and their measured log10 of IC50.
All values: base-10 log of IC50 in µM.

For orientation, consider the following solved cases.
line-notation: CN(C)C(=N)c1ccc(C(=O)Nc2ccc(OCC(=O)NCCCCCCN)cc2C(=O)Nc2ccc(Cl)cn2)cc1
target-entity: human plasma protein factor Xa (Homo sapiens (Human), UniProt P00742)
log10 of IC50: -1.62
--
line-notation: CS(=O)(=O)c1ccc(C(=O)Nc2ccc(Cl)cc2C(=O)Nc2ccc(Cl)cn2)c(NCCCCCCN)c1
target-entity: human plasma protein factor Xa (Homo sapiens (Human), UniProt P00742)
log10 of IC50: -0.80
--
line-notation: CN(C)C(=N)c1ccc(C(=O)Nc2ccc(OCC(=O)NCCCCCCN)cc2C(=O)Nc2ccccn2)cc1
target-entity: human plasma protein factor Xa (Homo sapiens (Human), UniProt P00742)
log10 of IC50: -0.64

Data request: Can you share its log10 of IC50? I mean this compound: CS(=O)(=O)c1ccc(C(=O)Nc2ccc(Cl)cc2C(=O)Nc2ccc(Cl)cn2)c(NCCCCCCCN)c1
Data returned: -0.49

Data request: So what does the record say about log10 of IC50 for NCCCCCCNc1cc(C(F)(F)F)ccc1C(=O)Nc1ccc(Cl)cc1C(=O)Nc1ccc(Cl)cn1 ?
Data returned: -0.21
